Data provenance is patent US20260232759A1.

- System tested: SARS-CoV-2 S (Severe acute respiratory syndrome coronavirus 2, UniProt P0DTC2)
- Construct: expressed in transfected cells
- Experiment summary: β-Gal complementation-based cell-cell fusion assay (S-protein-mediated fusion)
- Applied conditions: […]; cell-cell fusion assay; peptides with poly(ethylene glycol)-cholesterol tail; read-out: IC50, inhibition of S-mediated fusion
Starred links: 1 amine or outer side, 2 acyl side, 3 side chain; linkers in the order of their positions; H or OH if unused. Non-standard residues stand in square brackets, D forms with d. *: point of attachment. X2 = CC(C)CCC[C@@H](C)[C@H]1CC[C@H]2[C@@H]3CC=C4C[C@@H](OC(=O)CCOCCOCCOCCOCCNC(=O)C*)CC[C@]4(C)[C@H]3CC[C@]12C; X1 = O=C([C@H]1CNC[C@@H]1N[*:1])[*:2]; β3hE = N[C@@H](CCC(=O)O)CC(=O)O
Experimental readout: IC50

Q) Please report IC50 for the following substance: Ac-DISQINASVVNIEYEI[X1]KLE[β3hE]VA[X1]KLE[β3hE]SLIDLQELGSGSGC(X2)-NH2 [Bf APC/B3E]
A) ~50 nM
